- test target: T1, human insulin receptor (HIR) (human, UniProt P06213 28-1382, limits assumed)
- T1 construct: Detergent-solubilised receptor; The natural receptor is an alpha2-beta2 heterotetramer cleaved from one precursor
- test summary: 125I-insulin displacement, solubilised HIR
pKd: −log10 of the molar value. Starred links: 1 amine or outer side, 2 acyl side, 3 side chain; linkers in the order of their positions; H or OH if unused. Positions of bridges follow the written chain, without caps; N, C: chain ends. Non-standard residues stand in square brackets, D forms with d. Primed or numbered codes have the meaning given here. Chains are numbered I, II in the order given. No end group written: not given here. Lig′ = lysine with a 2-aminohydroxyacetyl group (CO-CH2-O-NH2) on the side-chain amino group, O=C(CON[*:3])NCCCC[C@H](N[*:1])C(=O)[*:2]; Hyp = O=C(O)[C@@H]1C[C@@H](O)CN1; Tic = O=C(O)[C@@H]1Cc2ccccc2CN1; linker 14 = not defined here; Ac6c = NC1(C(=O)O)CCCCC1
Give met when the value for pKd is at least 6. Give not met when it is less.

Solved entries:
[Ac6c]CLEEWGASL[Tic]QCSG (cysteine pairing not given here) [S256]    not met
RD[Hyp]FYDWFDD[dI] (printed: RD-Hyp-FYDWFDDi) [S268]    met
FHENFYDWFVRQVAKK [S105]    met
DWLQRNANFYDWFVAELG [S236]    met
FHENFYDWFVRQASKK [S106]    met
WQGYAWLS [S316]    not met
S218 (linker I:10-II:10 via linker 14; not fully specified; reading uncertain, dimer, C-C) peptide 1: AFYDWFAKK[Lig′] peptide 2: AFYDWFAKK[Lig′]    not met
EHWNTVDPFYQYFSELLRESG [S178]    met
NFYDWFVAELG [S243]    not met
SLDESFYDWFERQLG [S387]    met

Now consider a different binder.
Q: # bool: pKd of S350 (not fully specified; C-terminal Lig coupled to linker 21, dimer, C-C) peptide 1: GSLDESFYDWFERQLGKKX peptide 2: GSLDESFYDWFERQLGKKX >= 6
A: met
